Tested on: MCF7 breast
Assay: NCI-60 one-dose screen, 48 h
Details: 10 µM unless noted
About 83,000 compounds went through this panel and 20% of them were active in at least one assay; those are over-represented in the sample as a whole. Activity calls are given as the source filed them. The calls were made as follows: active = growth percent below 10; inactive = the rest.
Respond using exactly one of the listed classes: active, inactive

Check the results log: what was the call for Oc1cccc(-c2nc(-c3n[nH]c(=S)n3-c3ccccc3)cc3c2[nH]c2ccccc23)c1 ?
inactive

---

System: A549/ATCC NSCLC
Assay: NCI-60 one-dose screen, 48 h
Details: 10 µM unless noted
Compounds without any hit were thinned out: in the full panel of roughly 83,000, 20% have a hit. Calls of active or inactive are those of the source. Rule for the calls: active = growth percent below 10; inactive = the rest.
Entry note: the call must match one of active, inactive

# Molecule, Discrete Label
data = [
    ("CCCCCCCCCCCCCCCCCCOc1ccccc1CC(=O)OCC[N+]1(C)CCCCC1", "inactive"),
]

Per the records of this test, what outcome belongs to CC(Cc1cccc2ccccc12)C(N)=O (stereo unspecified) ?
inactive

Look up the recorded call for NCCNc1ccc([N+](=O)[O-])cc1 in this test.
inactive

Would you mind telling me which call this test gave Cc1cc2nc(C(Cl)Cl)nc(-c3ccccc3)n2n1 ?
active

Per the records of this test, what outcome belongs to O=C(Cn1cc(CSc2nc3ccccc3o2)nn1)Nc1ccc([N+](=O)[O-])cc1 ?
inactive

What call does the record list for O=C(c1ccccc1)[C@@H](c1ccccc1)[C@]1(O)C(=O)Nc2ccccc21 ?
inactive

---

Tested on: HOP-62 NSCLC
Assay: NCI-60 one-dose screen, 48 h (100 = growth as untreated, 0 = no growth, -100 = all killed)
Settings: 10 µM unless noted
Description: Growth inhibition of the HOP-62 human Non-Small Cell Lung tumor cell line is measured as a screen for anti-cancer activity. Cells are grown in 96 well plates and exposed to the test compound for 48 hours. Compounds are tested at a single concentration, which is 10^-5 M for most compounds. The reported endpoint is percent growth (GI% or GIPRCNT), where numbers from 0 - 100% represent growth inhibition, and numbers from -100% - 0 represent cell death. […]
This is part of a sample that, as a whole, favours compounds with a hit. Of some 83,000 tested, about 20% had one in any assay.
Endpoint: growth (%)
Write the answer as a number in %, unit excluded.

# Compound, Scale Unit, growth
rows = [
    ("C#CC(F)(F)[C@]1(O)CCC2C3CCC4=CC(=O)CCC4=C3[C@@H](c3ccc(N(C)C)cc3)C[C@@]21C (stereo not given in full)", "%", 90.6),
]

Give a short answer stating reported growth for COc1ccc(/C=C\c2cc(OC)c(OC)c(OC)c2)cc1OCC(=O)Nc1nc2ccccc2s1 .
62.5

Please report growth for the following compound: O=C(/C=C/c1ccco1)Nc1ncc(Cc2ccc(F)cc2)s1
25.8

---

Tested on: SW-620 colon
Test: NCI-60 one-dose screen, 48 h (100 = growth as untreated, 0 = no growth, -100 = all killed)
Details: 10 µM unless noted
The panel holds about 83,000 compounds, 20% with a hit somewhere; the sample as a whole holds those more often.
// not fulfilled strictly below 50% in growth; fulfilled otherwise

Hello, I need to know if CC(=O)Oc1ccccc1C(=O)N(Cc1ccc2c(Cl)cc(Cl)c(O)c2n1)c1ccccc1 has measured growth not below 50%. Thanks!
not fulfilled

---

System: SN12C renal
Test: NCI-60 one-dose screen, 48 h
Conditions: 10 µM unless noted
Method: Growth inhibition of the SN12C human tumor cell line is measured as a screen for anti-cancer activity. Cells are grown in 96 well plates and exposed to the test compound for 48 hours. Compounds are tested at a single concentration, which is 10^-5 M for most compounds. The reported endpoint is percent growth (GI% or GIPRCNT), where numbers from 0 - 100% represent growth inhibition, and numbers from -100% - 0 represent cell death. For example, a value of 40 represents 60% growth inhibition. […]
This is part of a sample that, as a whole, favours compounds with a hit. Of some 83,000 tested, about 20% had one in any assay. The source made the active and inactive calls. How the source made its calls: active means growth percent below 10; inactive means the rest.
Result category, one only: Yes (active), No (inactive)

Use the examples below as a reference point.
# Molecule, Target Desc, Discrete Label
records = [
    ("CN(C)CC1C(=O)O[C@H]2[C@H]1CC/C(COC(=O)NCc1ccc(Cn3c(=O)sn(CCCI)c3=O)cc1)=C\\CC[C@@]1(C)O[C@@H]21 (stereo not given in full)", "SN12C renal", "No"),
    ("COc1ccc(C(=O)C2OC3=C(C(=O)CC(C)(C)C3)C2c2cccc(Oc3ccccc3)c2)cc1 (stereo not given)", "SN12C renal", "No"),
    ("COc1cccc(-c2cc(-c3ccc(Nc4nc(Nc5ccc(Cl)cc5)nc(Nc5ccc(Cl)cc5)n4)cc3)nc(N)c2C#N)c1", "SN12C renal", "No"),
    ("COC(=O)c1c(C(=O)OC)c2ccc3c4ncccc4ccc3n2c1C(=O)c1ccc(C)cc1", "SN12C renal", "No"),
]

# outcome recorded in this test, key = O=C1Nc2ccccc2/C1=C/c1cccn1CCCCCCn1c2ccccc2c(=O)c2ccccc21
No

What is the recorded call for this molecule in the test? Oc1ccc(C2OCCO2)c2cccnc12
No

How was CCOC(=O)CC1CSC(N/N=C(/C)c2cccc(C(F)(F)F)c2)=N1 (stereo not given) classified in this test?
No

Can you look up the reported call for CCOC(=O)c1ccc2c(c1)[n+](=O)c(C(C)=O)c(C(F)(F)F)n2[O-] for me?
Yes

For CCOC(=O)C1=C(c2ccccc2)N=C2N(c3ccccc3)N=C(C(C)=O)N2C1c1ccc(Br)cc1 (stereo not given) , what call appears in the results of this test?
No

Test call for this molecule, please: Cn1cc(-c2csc(-c3cn(C)c4ccc(F)cc34)n2)c2cnccc21
Yes

Recorded call for COC(=O)c1c(C)nc(C)c2c1C(=O)C(Br)=C(NCCCCO)C2=O ?
No

What outcome does the record of this test show for O=c1c(/C=C/c2c(O)ccc3ccccc23)nnc2sc(-c3cccc([N+](=O)[O-])c3)nn12 ?
No

GET /call?item= COc1cccc(C2C3=C(COC3=O)N(CCO)c3cc4c(cc32)OCCO4)c1 (stereo not given) returns the recorded outcome of this test.
No

Short answer needed: outcome of this test for CC1(C)CC[C@]2(CO)CC[C@]3(C)[C@H](CC[C@@H]4[C@@]5(C)CC[C@H](O)C(C)(C)[C@@H]5CC[C@]43C)[C@H]2[C@H]1O ?
No

---

System: 786-0 renal
Assay: NCI-60 one-dose screen, 48 h (100 = growth as untreated, 0 = no growth, -100 = all killed)
Settings: 10 µM unless noted
The panel holds about 83,000 compounds, 20% with a hit somewhere; the sample as a whole holds those more often. Calls of active or inactive are those of the source. Rule for the calls: active = growth percent below 10; inactive = the rest.
Entries annotated with measured growth

Examples with answers:
# Compound, growth
records = [
    ("CN1CCN(CC(=O)N(C)c2ccc(N=C(c3ccccc3)c3c(O)[nH]c4ccc([N+](=O)[O-])cc34)cc2)CC1", "44.3% (inactive)"),
    ("O=C1/C(=C/c2ccccc2)COc2ccc(O)cc21", "86.9% (inactive)"),
    ("O=S(=O)(c1ccc(NCSc2nc3ccccc3s2)cc1)c1ccc(NCSc2nc3ccccc3s2)cc1", "99.6% (inactive)"),
    ("O=C(CNc1ncco1)Nc1ccc(S(=O)(=O)c2ccc(NC(=O)CNc3ncco3)cc2)cc1", "20.9% (inactive)"),
    ("CNC1=C([N+](=O)[O-])C(c2ccc(OC)cc2)C(C#N)=C(c2ccc[nH]2)O1 (centres undefined)", "106% (inactive)"),
    ("CCN(CC)CCCNc1cc(OC)cc2cccnc12", "102% (inactive)"),
]

Supply growth value. Item: C/C=C(/C)C(=O)O[C@@H]1CC(C)(C)CC2C34OC(=O)[C@@]21CC[C@@]3(C)[C@]1(C)CCC2C(C)(C)C(=O)CC[C@]2(C)C1C[C@@H]4O (some centres undefined)
74.7% (inactive)

In one line, give reported growth of the entry CCCCCCC/C=N/NC(=O)c1ccc(-n2cc(-c3ccccc3)nn2)cc1 .
92.2% (inactive)

Look up and state reported growth for CCOc1ccccc1NC(=O)CCC(=O)OC
91.1% (inactive)

---

Tested on: HCC-2998 colon
Assay: NCI-60 one-dose screen, 48 h (100 = growth as untreated, 0 = no growth, -100 = all killed)
Conditions: 10 µM unless noted
About 83,000 compounds went through this panel and 20% of them were active in at least one assay; those are over-represented in the sample as a whole.
This listing pairs molecules with measured growth.
Reply with just the number (in %).

The examples below pair each entry with its known result.
# Molecule, Target Desc, Scale Unit, growth
data = [
    ("CCOC(=O)C1=C(c2ccccc2)N=C2N(c3ccccc3)N=C(C(C)=O)N2C1c1ccc(Br)cc1 (centres undefined)", "HCC-2998 colon", "%", 103),
    ("CCCCCCCCCCCCCCCCCCOc1ccccc1CC(=O)OCC[N+]1(C)CCCCC1", "HCC-2998 colon", "%", 40.3),
]

Using the record for COC(=O)[C@H](C)NC(=O)c1ccc(NC(=O)c2[nH]c(C)c(Cl)c2Cl)c(OCCN)c1 , state its measured growth.
95.4

Please indicate growth recorded for O=[N+]([O-])c1ccc(Oc2cccc3c(Oc4ccc([N+](=O)[O-])cc4[N+](=O)[O-])cccc23)c([N+](=O)[O-])c1
110

This collection of values is drawn from PubChem BioAssay (NCI).
